Kindly state tissue uptake at 1 h for each of the entries shown.
assay: in vivo; parameters: species or system mice; conditions: male, NODSCID 1L2RγKO, mouse, iv, total radioactivity, Brain uptake
Answers are plain numbers, in %ID/g.

For orientation, consider the following solved cases.
>>> result_number("COc1ccc(CCCC(=O)NCC(=O)N[C@@H](CCCCNC(=O)CN2CCN(CC(=O)O)CCN(CC(=O)O)CCN(CC(=O)O)CC2)C(=O)NC[C@H]2CC[C@H](C(=O)N[C@@H](Cc3c4ccccc4cc4ccccc34)C(=O)NCCCC[C@H](NC(=O)N[C@@H](COCC(=O)O)C(=O)O)C(=O)O)CC2)cc1 [177Lu-HTK04028, metal not drawn]")
0.26
>>> result_number("O=C(O)CCC[C@H](NC(=O)N[C@@H](CCCCNC(=O)[C@H](Cc1c2ccccc2cc2ccccc12)NC(=O)[C@H]1CC[C@H](CNC(=O)[C@H](CCCCNC(=O)CN2CCN(CC(=O)O)CCN(CC(=O)O)CCN(CC(=O)O)CC2)NC(=O)CNC(=O)CCCc2ccc(Cl)cc2)CC1)C(=O)O)C(=O)O [177Lu-HTK03153, metal not drawn]")
0.35
>>> result_number("O=C(O)CCC[C@H](NC(=O)N[C@@H](CCCCNC(=O)[C@H](Cc1c2ccccc2cc2ccccc12)NC(=O)[C@H]1CC[C@H](CNC(=O)CN2CCN(CC(=O)O)CCN(CC(=O)O)CCN(CC(=O)O)CC2)CC1)C(=O)O)C(=O)O [177Lu-HTK03149, metal not drawn]")
0.02
>>> result_number("COc1ccc(CCCC(=O)NCC(=O)N[C@@H](CCCCNC(=O)CN2CCN(CC(=O)O)CCN(CC(=O)O)CCN(CC(=O)O)CC2)C(=O)NC[C@H]2CC[C@H](C(=O)N[C@@H](Cc3c4ccccc4cc4ccccc34)C(=O)NCCCC[C@H](NC(=O)N[C@@H](CCCC(=O)O)C(=O)O)C(=O)O)CC2)cc1 [177Lu-HTK03170, metal not drawn]")
0.23

IN: # input molecule: COc1ccc(CCCC(=O)NCC(=O)N[C@@H](CCCCNC(=O)CN2CCN(CC(=O)O)CCN(CC(=O)O)CCN(CC(=O)O)CC2)C(=O)NC[C@H]2CC[C@H](C(=O)N[C@@H](Cc3c4ccccc4cc4ccccc34)C(=O)NCCCC[C@H](NC(=O)N[C@@H](CSCC(=O)O)C(=O)O)C(=O)O)CC2)cc1 [177Lu-HTK04048, metal not drawn] ; wanted: its tissue uptake at 1 h
OUT: 0.31
